molecular target: RIT1•mGppNHp (human, UniProt Q92963 1-219); test: FP
Sequence (Q92963 whole entry): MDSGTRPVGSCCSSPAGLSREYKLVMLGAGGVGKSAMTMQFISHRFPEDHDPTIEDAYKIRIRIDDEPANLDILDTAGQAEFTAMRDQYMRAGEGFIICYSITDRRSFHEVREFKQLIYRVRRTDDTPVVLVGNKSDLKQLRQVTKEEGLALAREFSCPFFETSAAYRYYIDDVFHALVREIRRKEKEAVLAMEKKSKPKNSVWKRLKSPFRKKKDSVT
pKd: −log10 of the molar value.
VALUE TYPE: pKd

RASSF4-to-5 variant (RASSF4 RA domain with RASSF5 hotspot residues), MBP fusion (domain or fragment) YNHKTSVFTPADGIKTLVRVNSTMTTLQVLTLLLNKFRVEDGPSEFALYIVHESGERTKLKDCEYPLISRILHGPCEKIARIFLMEADL    3.77
